Attribute: GI50
# TEST TARGET: BaF3 TELJAK2 cells (BafT_J2) (Homo sapiens)
# Construct: fused on or other part: TEL (ETV6) N-terminal part, coding nucleotides 1-487, serves as the oligomerising partner; It is fused through a Sal I site to the JAK2 kinase domain and expressed from pTRE2 in BaF3 cells bearing pTET-off; P41212 (Transcription factor ETV6)
# Sequence (O60674 whole entry, change not shown, the tested form may be a part): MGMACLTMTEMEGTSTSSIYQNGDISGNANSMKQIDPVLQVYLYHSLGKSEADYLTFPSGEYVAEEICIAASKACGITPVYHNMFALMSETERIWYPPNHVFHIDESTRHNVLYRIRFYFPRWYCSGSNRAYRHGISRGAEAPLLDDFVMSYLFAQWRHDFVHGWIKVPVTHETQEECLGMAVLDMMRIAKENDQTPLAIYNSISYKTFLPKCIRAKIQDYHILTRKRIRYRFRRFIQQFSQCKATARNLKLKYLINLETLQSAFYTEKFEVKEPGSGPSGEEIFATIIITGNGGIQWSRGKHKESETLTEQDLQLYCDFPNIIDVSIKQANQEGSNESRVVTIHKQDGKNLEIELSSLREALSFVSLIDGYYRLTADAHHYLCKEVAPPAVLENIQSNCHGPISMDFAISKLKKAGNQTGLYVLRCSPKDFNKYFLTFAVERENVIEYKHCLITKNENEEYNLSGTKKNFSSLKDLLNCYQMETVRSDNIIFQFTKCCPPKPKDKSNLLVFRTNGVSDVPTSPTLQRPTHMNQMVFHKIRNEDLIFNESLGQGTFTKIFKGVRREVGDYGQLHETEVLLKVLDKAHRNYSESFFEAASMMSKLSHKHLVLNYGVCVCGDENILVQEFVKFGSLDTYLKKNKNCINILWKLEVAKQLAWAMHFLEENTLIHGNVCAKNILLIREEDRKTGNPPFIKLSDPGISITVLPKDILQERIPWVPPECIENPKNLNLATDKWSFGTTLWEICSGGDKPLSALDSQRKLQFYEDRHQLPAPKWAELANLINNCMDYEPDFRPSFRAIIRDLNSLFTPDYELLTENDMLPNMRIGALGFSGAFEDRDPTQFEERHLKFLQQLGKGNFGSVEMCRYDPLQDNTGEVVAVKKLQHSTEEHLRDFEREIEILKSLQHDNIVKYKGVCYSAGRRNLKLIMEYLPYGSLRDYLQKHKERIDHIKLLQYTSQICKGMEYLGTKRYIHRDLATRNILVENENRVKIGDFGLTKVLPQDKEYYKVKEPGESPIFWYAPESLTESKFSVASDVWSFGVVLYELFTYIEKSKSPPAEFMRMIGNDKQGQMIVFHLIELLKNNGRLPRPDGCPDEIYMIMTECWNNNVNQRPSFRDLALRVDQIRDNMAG
# EXPERIMENTAL PROTOCOL: Cellular screening, BaF3 TEL:JAK2 cells, Alamar Blue
# Format: cell-based
# SETTINGS: 40 hr, read-out: BafT_J2 IC50_nM

MOLECULE: C=CC(=O)N(C)c1ccc(Sc2ccnc(Nc3ccc(N4CCOCC4)cc3)n2)cc1
GI50: < 20 µM
//
MOLECULE: C=CC(=O)Nc1ccc(Sc2ccnc(Nc3ccc(N4CCOCC4)cc3)n2)cc1
GI50: > 20 µM
//
MOLECULE: Cc1cnc(Nc2ccc(N3CCOCC3)cc2)nc1Sc1ccc(NC(=O)COCC(=O)O)cc1
GI50: > 20 µM
//
MOLECULE: C=CC(=O)Nc1cccc(Sc2ccnc(Nc3ccc(N4CCOCC4)cc3)n2)c1
GI50: < 20 µM
//
MOLECULE: Cc1cnc(Nc2ccc(N3CCOCC3)cc2)nc1Sc1c(C)cc(N)cc1C
GI50: > 20 µM
//
MOLECULE: Cc1cnc(Nc2ccc(N3CCOCC3)cc2)nc1Sc1ccc(C#N)cc1
GI50: > 20 µM
//
MOLECULE: C=CC(=O)Nc1cccc(Nc2nccc(Sc3ccccc3)n2)c1
GI50: < 5 µM
//
MOLECULE: C=CC(=O)Nc1cccc(Nc2nccc(Sc3cccc(OC)c3)n2)c1
GI50: < 20 µM
//
MOLECULE: C=CC(=O)Nc1ccc(Sc2ccnc(Nc3cccc(N4CCCC4)c3)n2)cc1
GI50: < 20 µM
//
MOLECULE: Cc1cnc(Nc2ccc(N3CCOCC3)cc2)nc1Sc1ccc(N)nc1
GI50: < 20 µM
//
MOLECULE: CC#CC(=O)Nc1ccc(Sc2ccnc(Nc3cccc(N4CCOCC4)c3)n2)cc1
GI50: < 5 µM
//
MOLECULE: COc1cc(Sc2ccnc(Nc3ccc(N4CCOCC4)cc3)n2)ccc1N
GI50: < 20 µM
//
MOLECULE: N#Cc1nccc(Sc2ccc(Sc3ccnc(Nc4ccc(N5CCOCC5)cc4)n3)cc2)n1
GI50: < 5 µM
//
MOLECULE: CCOC(=O)c1nccn1Cc1ccc(Sc2ccnc(Nc3ccc(N4CCOCC4)cc3)n2)cc1
GI50: < 20 µM
//
MOLECULE: C=CC(=O)Nc1ccc(Sc2nc(Nc3ccc(NS(C)(=O)=O)c(OC)c3)ncc2C)cc1
GI50: < 5 µM
//
MOLECULE: CNC(=O)/C=C\C(=O)Nc1ccc(Sc2nc(Nc3ccc(N4CCOCC4)cc3)ncc2C)cc1
GI50: < 20 µM
//
MOLECULE: Cc1cnc(Nc2ccc(N3CCOCC3)cc2)nc1Sc1ccc(NC(=O)/C(Br)=C\C(=O)O)cc1
GI50: > 20 µM
//
MOLECULE: C=CC(=O)Nc1ccc(Sc2nc(Nc3ccc(OCCN4CCOCC4)cc3)ncc2C)cc1
GI50: < 20 µM
//
MOLECULE: C=CC(=O)Nc1ccc(Sc2nc(Nc3ccc(N4CCOCC4)cc3)ncc2C)c(Cl)c1C
GI50: > 20 µM
//
MOLECULE: C=CC(=O)Nc1ccc(Sc2nc(Nc3cccc(N4CCOCC4)c3)ncc2F)cc1
GI50: < 5 µM
//
MOLECULE: Cc1cnc(Nc2ccc(N3CCOCC3)cc2)nc1Sc1ccc(N2C(=O)CSCC2=O)cc1
GI50: < 20 µM
//
MOLECULE: C=CC(=O)Nc1ccc(Sc2nc(Nc3cccc(N4CCOCC4)c3)ncc2I)cc1
GI50: < 20 µM
//
MOLECULE: CC(=O)Nc1ccc(Sc2ccnc(Nc3ccc(N4CCC(N5CCCC5)CC4)cc3)n2)cc1
GI50: < 20 µM
//
MOLECULE: C=CC(=O)Nc1ccc(Sc2nc(Nc3ccc(C4CCN(C)CC4)cc3)ncc2C)cc1
GI50: < 5 µM
//
MOLECULE: N#CCC(=O)Nc1cccc(Sc2ccnc(Nc3ccc(N4CCOCC4)cc3)n2)c1
GI50: < 20 µM
//
MOLECULE: Cc1cnc(Nc2ccc(N3CCOCC3)cc2)nc1Sc1ccc(C(C#N)N2CCN(C)CC2)cc1 (centres unmarked)
GI50: < 5 µM
//
MOLECULE: CC#CC(=O)Nc1cccc(Sc2ccnc(Nc3cccc(N4CCOCC4)c3)n2)c1
GI50: < 20 µM
//
MOLECULE: C=CC(=O)Nc1ccc(Sc2ccnc(Nc3ccccc3O)n2)cc1
GI50: < 20 µM
//
MOLECULE: Cc1cnc(Nc2ccc(N3CCOCC3)cc2)nc1Sc1ccc(C=O)cc1
GI50: < 5 µM
